test system: P. falciparum P31 (CQR); experiment: microbe, parasite or virus in culture; format: cell-based; conditions: Plasmodium falciparum, read-out: IC50, parasite strain P31
PROPERTY_LABEL: pIC50
# log scale: pIC50 equals minus log10 of the concentration in mol/L

q: Using the record for C=C[C@H]1C[N@@]2CC[C@H]1C[C@H]2[C@H](O)c1ccnc2ccc(OC)cc12 , report its pIC50.
a: 6.27

The reported measurements were obtained from paper PMC4068143.
